# Tested on: Pseudomonas syringae pv. syringae EPS94
# Assay type: cell-based
# RUN_PARAMETERS: 48 h
Where a SMILES comes first, the peptide text is derived from it. [ ]: non-standard residue; d: D form. The star is where a group is joined. Oleoyl = CCCCCCCC/C=C\CCCCCCCC(=O)*; Octanoyl = CCCCCCCC(=O)*; Hexanoyl = CCCCCC(=O)*; Butyryl = CCCC(=O)*
Measured MIC Pss values are reported for all entries that follow.
RECORDED_METRIC: MIC Pss

• CCCC(=O)NCCCC[C@@H]1NC(=O)[C@H](CCCCN)NC(=O)[C@H](CCC(N)=O)NC(=O)[C@H](CC(C)C)NC(=O)[C@H](CCCCN)NC(=O)[C@H](CCCCN)NC(=O)[C@@H](Cc2ccccc2)NC(=O)[C@H](CCCCN)NC(=O)[C@H](CCCCN)NC(=O)[C@H](CC(C)C)NC1=O [BPC714, c(KK(CO-C3H7)LKKfKKLQ)] (cyclo(KK(Butyryl)LKK[dF]KKLQ)) = 25 to 50 µM
• CCCCCC(=O)NCCCC[C@H]1NC(=O)[C@H](CCCCN)NC(=O)[C@H](CC(C)C)NC(=O)[C@H](CCCCN)NC(=O)[C@H](CCCCN)NC(=O)[C@H](CCC(N)=O)NC(=O)[C@H](CC(C)C)NC(=O)[C@H](CCCCN)NC(=O)[C@H](CCCCN)NC(=O)[C@@H](Cc2ccccc2)NC1=O [BPC632, c(KKLKk(CO-nC5H11)fKKLQ)] (cyclo(KKLK[dK](Hexanoyl)[dF]KKLQ)) = 12.5 to 25 µM
• CCCCCC(=O)NCCCC[C@@H]1NC(=O)[C@H](CCCCN)NC(=O)[C@H](CCC(N)=O)NC(=O)[C@H](CC(C)C)NC(=O)[C@H](CCCCN)NC(=O)[C@H](CCCCN)NC(=O)[C@H](Cc2c[nH]cn2)NC(=O)[C@H](CCCCN)NC(=O)[C@H](CCCCN)NC(=O)[C@H](CC(C)C)NC1=O [BPC682] (cyclo(HKKLQKK(Hexanoyl)LKK)) = 12.5 to 25 µM
• CCCCCCCC/C=C\CCCCCCCC(=O)NCCCC[C@@H]1NC(=O)[C@H](CCCCN)NC(=O)[C@H](CC(C)C)NC(=O)[C@H](CCCCN)NC(=O)[C@H](CCCCN)NC(=O)[C@H](CCC(N)=O)NC(=O)[C@H](CC(C)C)NC(=O)[C@H](CCCCN)NC(=O)[C@H](CCCCN)NC(=O)[C@H](Cc2ccccc2)NC1=O [BPC622, c(KKLKK(CO-C17H33)FKKLQ)] (cyclo(FKKLQKKLKK(Oleoyl))) = 25 to 50 µM
• CCCCCCCC(=O)NCCCC[C@@H]1NC(=O)[C@H](CCCCN)NC(=O)[C@H](CC(C)C)NC(=O)[C@H](CCCCN)NC(=O)[C@H](CCCCN)NC(=O)[C@H](CCC(N)=O)NC(=O)[C@H](CC(C)C)NC(=O)[C@H](CCCCN)NC(=O)[C@H](CCCCN)NC(=O)[C@H](Cc2c[nH]cn2)NC1=O [BPC670, c(KKLKK(CO-C7H15)HKKLQ)] (cyclo(HKKLQKKLKK(Octanoyl))) = 12.5 to 25 µM
• CCCC(=O)NCCCC[C@@H]1NC(=O)[C@H](CCC(N)=O)NC(=O)[C@H](CC(C)C)NC(=O)[C@H](CCCCN)NC(=O)[C@H](CCCCN)NC(=O)[C@H](Cc2ccccc2)NC(=O)[C@H](CCCCN)NC(=O)[C@H](CCCCN)NC(=O)[C@H](CC(C)C)NC(=O)[C@H](CCCCN)NC1=O [BPC710] (cyclo(FKKLQK(Butyryl)KLKK)) = 12.5 to 25 µM
